# TESTED TARGET: human alpha-thrombin (human, UniProt P00734;P00734 328-363;364-622)
# PROCEDURE SUMMARY: BLI; kon 3.9e7 M-1s-1, koff 2.1e-3 s-1; DAB moiety binds active site; not given in the material (Methods for BLI and fluorogenic assay are headings only)
MEASURED METRIC: Kd (nM)
Reply with just the number (in nM).

Task: Look up and report measured Kd for this entry: AAAAAAAAGTCCGTGGTAGGGCAGGTTGGGGTGACT (structured_DNA, 5' C6-dabigatran) [Bio-HD22-7A-DAB]
Result: 0.054
